Values were extracted from the supplement of paper PMC7877785.

ASSAY REMARKS: self-splicing fitness, log relative to wild type (ln ratio); higher = more splicing; Tetrahymena group I intron in knt gene, E. coli kanamycin selection, DiMSum; sequences stand for … in CUCUCU…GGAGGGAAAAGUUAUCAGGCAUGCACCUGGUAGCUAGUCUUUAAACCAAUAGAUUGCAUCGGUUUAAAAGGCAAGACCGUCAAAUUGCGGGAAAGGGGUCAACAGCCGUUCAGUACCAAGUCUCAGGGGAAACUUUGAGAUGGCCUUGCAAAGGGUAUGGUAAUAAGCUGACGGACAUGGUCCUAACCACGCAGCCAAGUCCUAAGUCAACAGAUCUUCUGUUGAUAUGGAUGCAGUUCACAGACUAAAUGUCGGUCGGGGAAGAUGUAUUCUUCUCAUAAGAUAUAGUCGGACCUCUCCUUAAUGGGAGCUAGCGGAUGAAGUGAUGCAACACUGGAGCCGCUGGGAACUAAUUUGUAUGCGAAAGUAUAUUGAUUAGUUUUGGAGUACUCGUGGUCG;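 further: selection with 25 µg/mL kanamycin versus none on LB agar overnight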
ASSAY CONDITIONS: 30 °C
Label not fulfilled if self-splicing fitness (ln) falls below -2; label fulfilled in every other case.

SEQUENCE CHAIN | GROUP
CUGAAGCAAUAUUACGGGCC | not fulfilled
UUCCAGCAAUAUUACGGAGA | fulfilled
GGCUAGCAAUAUUACGAAAG | not fulfilled
GCGCAGCAAUAUUACGCUCC | fulfilled
ACGAAGCAAUAUUACGUAAA | not fulfilled
UUUAAGCAAUAUUACGCUCG | fulfilled
UGAAAGCAAUAUUACGAGAA | not fulfilled
GUUCAGCAAUAUUACGCCUA | fulfilled
